# Test system: SK-OV-3
# Test: NCI tumour cell line growth inhibition, 48 h
Activity calls are given as the source filed them. No stated cut-off is given here; in the data, active = GI50 up to about 1.1 µM and inactive = higher.
Quantity measured: GI50

>>> value_measured("Cc1ccc2nc(CC(=O)c3ccc4ccccc4c3)c(O)nc2c1")
"> 100 µM (inactive)"
>>> value_measured("Cc1ccc(S(=O)(=O)N/N=C(\\CCN2CCCC2)CC(c2ccccc2)c2c(O)c3ccccc3oc2=O)cc1 (stereo not drawn)")
"> 100 µM (inactive)"
>>> value_measured("CCCC1N2CCCCC2[C@@H]2c3[nH]c4ccccc4c3CCN12 (stereo partly drawn)")
"> 100 µM (inactive)"
>>> value_measured("CO/N=C(\\C(=O)N(C)n1cnnc1)c1csc(NC(c2ccccc2)(c2ccccc2)c2ccccc2)n1")
"> 10 µM (inactive)"
>>> value_measured("C/C(=N\\Nc1ccc([N+](=O)[O-])cc1[N+](=O)[O-])c1ccc2ccccc2n1")
"> 100 µM (inactive)"
>>> value_measured("O=C(O)c1nc2cc(C(F)(F)F)ccc2[nH]c1=O")
"> 100 µM (inactive)"
>>> value_measured("CCOC(=O)C(=O)C(CCC(=O)c1ccc2ccccc2c1O)C(=O)OCC (stereo not drawn)")
"> 100 µM (inactive)"
>>> value_measured("C=CCC12CCC(=O)C=C1CCC1(C2)OCCO1 (stereo not drawn)")
"> 100 µM (inactive)"
>>> value_measured("Cn1c(-c2cccs2)cc(-c2cccs2)c1-c1ccco1")
"> 100 µM (inactive)"
>>> value_measured("Cc1nn(C(=O)c2ccc(Cl)cc2)c2c1C(c1ccco1)SC(=N)N2 (stereo not drawn)")
"> 10 µM (inactive)"
>>> value_measured("COC(=O)CC1c2ccccc2N2C(=O)Cc3c([nH]c4ccccc34)C12 (stereo not drawn)")
"> 100 µM (inactive)"
>>> value_measured("O=c1[nH]c(=O)n(C2CC(O)C(CO)O2)c2nc3cc4ccccc4cc3nc12 (stereo not drawn)")
"> 100 µM (inactive)"
>>> value_measured("OCCSCCCSCCO")
"> 100 µM (inactive)"

----------
# System: OVCAR-3
# Test: NCI tumour cell line growth inhibition, 48 h
Calls of active or inactive are those of the source. Rule as the data show it: active = GI50 up to about 1.1 µM and inactive = higher.
Outcomes: active, inactive

>>> qualitative_label("CCOC(=O)CCC(NC(=O)c1ccc(NC(OC)c2nc3cc(C(F)(F)F)ccc3nc2-c2ccccc2)cc1)C(=O)OCC (configuration not stated)")
"inactive"
>>> qualitative_label("CC/C(Cl)=N\\OC(=O)Nc1ccc(C#N)cc1")
"inactive"
>>> qualitative_label("N#Cc1cc([N+](=O)[O-])ccc1NC(=O)C(=O)C(C(=O)/C=C/c1ccccc1)C1OC(=O)c2ccccc21 (configuration not stated)")
"inactive"
>>> qualitative_label("NC(=O)NC1C(C(N)=O)N(Cc2ccccc2)C(=O)N1Cc1ccccc1 (configuration not stated)")
"inactive"
>>> qualitative_label("CC(C)Cc1ccc(C(C)/C=C2\\CCC(CN3CCCCC3)C2=O)cc1 (configuration not stated)")
"inactive"
>>> qualitative_label("COc1cc2c(cc1OC)[C@]1(O)C(=O)c3ccc4c(c3O[C@@H]1CO2)C[C@H](C(C)(C)O)O4")
"inactive"
>>> qualitative_label("CC1(C)C2CCC1(C)[C@H](n1c(=O)n([C@@H]3CC4CCC3(C)C4(C)C)c(=O)n([C@@H]3CC4CCC3(C)C4(C)C)c1=O)C2")
"inactive"
>>> qualitative_label("CC1=CC(=O)NP(=O)(Oc2ccc(Cl)cc2)N1 (configuration not stated)")
"inactive"
>>> qualitative_label("Nc1nc(Cl)cc(NCC2(CO)CC(OCc3ccccc3)C2)n1 (configuration not stated)")
"inactive"
>>> qualitative_label("CCn1c(=O)c2c3ccc(OC(C)=O)cc3[nH]c2c2ccc(OC(C)=O)cc21")
"inactive"
>>> qualitative_label("N#C/C(=C\\NC(=S)Nc1ccc(S(=O)(=O)Nc2ccccn2)cc1)C(N)=O")
"inactive"
>>> qualitative_label("CNc1nc2c(C)ccc3nc(N(C)C)[nH]c3c-2n1")
"inactive"
>>> qualitative_label("COc1cc2c(c(OC)c1OC)-c1c(cc3c(c1OC)OCO3)CC(C)C(C)(O)C2OC(=O)c1ccccc1 (configuration not stated)")
"inactive"
>>> qualitative_label("COc1ccc(/N=N/c2c(O)ccc3ccccc23)cc1")
"inactive"
>>> qualitative_label("CCOC(=O)CSc1nc(-c2ccc(Cl)cc2)c(C#N)c(=O)[nH]1")
"inactive"
>>> qualitative_label("COCCN1C2=CCCCC2=Nc2c1nc(N)[nH]c2=O")
"inactive"
>>> qualitative_label("O=C(CN(Cc1ccccc1)Cc1ccccc1)N1CCc2c([nH]c3ccccc23)C1c1cccnc1 (configuration not stated)")
"inactive"
>>> qualitative_label("COC1OC(OC)C2C(c3c(C)cc(C)cc3C)=NOC12 (configuration not stated)")
"inactive"
>>> qualitative_label("N#Cc1c(-c2ccccc2)cc(-c2ccc(N)cc2)[nH]c1=O")
"inactive"
>>> qualitative_label("OCCSCCCSCCO")
"inactive"
>>> qualitative_label("N#CC1CC(c2ccccc2)Nc2cc(Cl)ccc2N1 (configuration not stated)")
"inactive"
>>> qualitative_label("C/C(=N\\NC(=S)NC(CCC(=O)O)C(=O)O)c1cnccn1 (configuration not stated)")
"inactive"
>>> qualitative_label("CCOc1ccc(N2C(=O)NC3(c4ccccc4)N(C)C(=O)N(C)C23c2ccccc2)cc1 (configuration not stated)")
"inactive"
>>> qualitative_label("O=C1Nc2ccccc2/C1=C/c1c(Cl)[nH]c2ccc(O)cc12")
"inactive"
>>> qualitative_label("CCC/C(=N/NC(=O)C(N)=O)C(CC)C(=O)CCC(=O)N(Cc1ccccc1)Cc1ccccc1 (configuration not stated)")
"inactive"
>>> qualitative_label("CSc1c(C#N)c(=O)[nH]c2[nH]nc(C)c12")
"inactive"
>>> qualitative_label("C[C@@]1(O)C[C@@H](N2C(=O)O[C@@H](c3ccccc3)[C@H]2c2ccccc2)[C@@H]1COCc1ccccc1")
"inactive"
>>> qualitative_label("C=CCN(N=O)C(=O)N(CCCCC(NC(C)=O)C(=O)NCc1ccccc1)Cc1ccccc1 (configuration not stated)")
"inactive"
>>> qualitative_label("N#CC(C(=O)/C(=N\\Nc1nc(S)nn1N)C(C#N)c1ccc(Cl)cc1)c1ccc(Cl)cc1 (configuration not stated)")
"inactive"
>>> qualitative_label("COc1ccc2[nH]c(CCNC(=O)c3cc([N+](=O)[O-])cc([N+](=O)[O-])c3)cc2c1")
"inactive"
>>> qualitative_label("O=S(=O)(c1ccc(/N=N/O)nc1)c1ccc2ccccc2c1")
"inactive"
>>> qualitative_label("CCNc1nc(N)c(C(=O)c2cccs2)s1")
"inactive"
>>> qualitative_label("C/C(=C\\C(=N\\NC(=N)N)c1ccccc1)c1ccccc1")
"active"
>>> qualitative_label("Nc1nc(Cl)c2nnn(CC3CCC(CO)C3)c2n1 (configuration not stated)")
"inactive"
>>> qualitative_label("CCOC(=O)c1c(SCCN2CCCC2)n(-c2ccccc2)c(=S)n(-c2ccccc2)c1=O")
"inactive"
>>> qualitative_label("O=c1n(-c2ccc(Cl)c(Cl)c2)c(=O)n(-c2ccc(Cl)c(Cl)c2)c(=O)n1-c1ccc(Cl)c(Cl)c1")
"inactive"
>>> qualitative_label("CCOC(=O)C1=C(OC(OCC)C(CC)[Se]c2ccccc2)CCC1 (configuration not stated)")
"inactive"

----------
# Tested on: M14
# Test: NCI tumour cell line growth inhibition, 48 h
Activity calls are given as the source filed them. Cut-off read from the data, not from the text of the source: active = GI50 up to about 1.1 µM and inactive = higher.
GI50 by entry:
Quantity measured: GI50

>>> value_measured("Oc1ccc2ccccc2c1/N=N/c1ccc(F)cc1")
"> 100 µM (inactive)"
>>> value_measured("O=C1C(c2ccccc2)=C(c2ccccc2)[C@H](c2ccccc2)[C@]1(Cc1nnn(-c2ccc([N+](=O)[O-])cc2)c1N1CCOCC1)c1ccccc1")
"> 37.5 µM (inactive)"
>>> value_measured("CSc1cc(Cl)c(C)cc1S(=O)(=O)NC(=O)NNc1ccc(Cl)cc1")
"> 100 µM (inactive)"
>>> value_measured("CCOC(=O)P(=O)(O)c1ccc(N(C)Cc2ccccc2)cc1")
"> 100 µM (inactive)"
>>> value_measured("Cc1ccc(Nc2cn(COCc3ccccc3)c(=O)[nH]c2=O)cc1")
"> 100 µM (inactive)"
>>> value_measured("CC(=O)C1(c2ccccc2)CCN(Cn2sc3nc(C)cc(C)c3c2=O)CC1")
"25.8 µM (inactive)"
>>> value_measured("C#CCC(O)c1ccccc1C(O)CC#C (stereo not given)")
"> 100 µM (inactive)"
>>> value_measured("CN(Cc1cnc2nc(N)nc(N)c2n1)c1ccc(C(=O)NC(CCC(=O)O)C(=O)O)c2ccccc12 (stereo not given)")
"0.00869 µM (active)"
>>> value_measured("CCOC(=O)NC(N(C)C(C(C)C)P(=O)(OCC)OCC)(C(F)(F)F)C(F)(F)F (stereo not given)")
"> 100 µM (inactive)"
>>> value_measured("COc1ccc(/N=N/c2c(O)ccc3ccccc23)cc1")
"26.1 µM (inactive)"
>>> value_measured("CCCN1C(=O)/C(=C\\c2ccc(OC)c(OC)c2)S/C1=N\\c1ccccc1")
"> 100 µM (inactive)"
>>> value_measured("Cc1cccc2c1Oc1ncccc1C2NC(=O)CN(C)C (stereo not given)")
"> 10 µM (inactive)"
>>> value_measured("COc1ccccc1NC(=O)CC(=O)N1N=C(N2c3ccccc3Sc3ccccc32)CC1c1ccccc1 (stereo not given)")
"> 100 µM (inactive)"
>>> value_measured("Cc1ccc(S(=O)(=O)N[C@H](C(=O)O)c2ccccc2)cc1")
"> 100 µM (inactive)"
>>> value_measured("CCC/C(=N/NC(=O)C(N)=O)C(CC)C(=O)CCC(=O)N(Cc1ccccc1)Cc1ccccc1 (stereo not given)")
"> 100 µM (inactive)"
>>> value_measured("c1ccc(C(=NNc2nc3ccccc3[nH]2)c2ccccn2)nc1")
"0.126 µM (active)"
>>> value_measured("CC(=O)O[C@H]1C(=O)[C@@]2(C)[C@H]([C@H](OC(=O)c3cccc(C(F)(F)F)c3)[C@]3(O)C[C@H](OC(=O)[C@H](O)[C@@H](NC(=O)c4ccccc4)c4ccccc4)C(C)=C1C3(C)C)[C@]1(OC(C)=O)CO[C@@H]1C[C@@H]2O")
"0.00306 µM (active)"
>>> value_measured("O=P1(Oc2ccccc2)NCc2ncccc2O1 (stereo not given)")
"> 100 µM (inactive)"
>>> value_measured("COc1cc2c(cc1OC)[C@]1(O)C(=O)c3ccc4c(c3O[C@@H]1CO2)C[C@H](C(C)(C)O)O4")
"> 100 µM (inactive)"
>>> value_measured("CCOc1ccc(NC(=O)/C(CC(=O)c2c[n+]([O-])c3ccccc3[n+]2[O-])=N\\OCCCc2ccccc2)cc1")
"> 100 µM (inactive)"
>>> value_measured("Nc1ccc2nc(N)n[n+]([O-])c2c1")
"> 100 µM (inactive)"
>>> value_measured("Cc1ccc2c(O)cc(-c3ccc(C)s3)nc2n1")
"0.303 µM (active)"
>>> value_measured("CC1=C(C(=O)O)N2C(=O)[C@@H](NC(=O)C(c3ccccc3)N3CSC(=S)N(C(C)C)C3)C2SC1 (stereo not given in full)")
"> 100 µM (inactive)"
>>> value_measured("CC(=O)NCC1OC2COC(c3ccccc3)OC2C2N=C(c3ccccc3)OC12 (stereo not given)")
"60.8 µM (inactive)"
>>> value_measured("O=C1Nc2ccccc2/C1=C/c1c(Cl)[nH]c2ccc(O)cc12")
"1.36 µM (inactive)"
>>> value_measured("COc1ccc(/C=C\\c2cc(OC)c(O[Si](C)(C)C(C)(C)C)c(OC)c2)cc1")
"45.4 µM (inactive)"
>>> value_measured("Cc1cccc2c(=O)cc(-c3ccccc3)[nH]c12")
"3.45 µM (inactive)"
>>> value_measured("O=C(O)[C@@H]1OCCOCCO[C@@H](C(=O)O)[C@H](C(=O)O)OCCOCCO[C@H]1C(=O)O")
"> 100 µM (inactive)"
>>> value_measured("Cc1[nH]n(C2=NCCN2)c(=O)c1Cc1ccccc1")
"> 100 µM (inactive)"
>>> value_measured("Oc1cc(-c2cccc(C(F)(F)F)c2)nc2cc3c(cc12)OCO3")
"1.76 µM (inactive)"
>>> value_measured("CC(=O)NC(c1nc2cc(C)c(C)cc2[nH]1)c1nc2cc(C)c(C)cc2[nH]1")
"25.4 µM (inactive)"
>>> value_measured("FC(F)(F)c1nc2ccc(SSc3ccc4nc(C(F)(F)F)[nH]c4c3)cc2[nH]1")
"94.2 µM (inactive)"
>>> value_measured("CCOC(=O)c1c(SCCN2CCCC2)n(-c2ccccc2)c(=S)n(-c2ccccc2)c1=O")
"1.75 µM (inactive)"
>>> value_measured("COc1ccc(-c2nc3cc(F)ccc3s2)cc1O")
"26.5 µM (inactive)"
>>> value_measured("COc1cc(-c2c(C)c(C)nc(OC)c2C#N)cc(OC)c1OC")
"> 100 µM (inactive)"
>>> value_measured("O=C1OC(CCCN2CCCCC2)(c2ccccc2)CC12CCCC2 (stereo not given)")
"17.7 µM (inactive)"
>>> value_measured("O=C(O)CCc1nn2c(nc1=O)sc1ccc3ccccc3c12")
"> 100 µM (inactive)"
>>> value_measured("N#Cc1c(-c2ccccc2)cc(-c2ccc(N)cc2)[nH]c1=O")
"> 100 µM (inactive)"
>>> value_measured("COCC(=O)CP(=O)(OC)OC")
"> 100 µM (inactive)"
>>> value_measured("C=C1C(=O)O[C@@H]2C[C@]3(C)CC[C@]4(C)[C@H](CC[C@@H]5[C@@]6(C)CCC(=O)C(C)(C)[C@@H]6CC[C@]54C)[C@H]3[C@H]12 [OCHRACEOLIDE A]")
"14.6 µM (inactive)"

These entries and their values trace back to ChEMBL document CHEMBL1201862.
